- Tested on: Fer (mouse);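 also: 11-residue human phosphosite peptides and single-mutation variants displayed on the E. coli surface, counted by deep sequencing, each peptide's frequency after selection divided by its frequency in the unselected input library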;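 also: frequency after pTyr selection over input frequency; kinase dosed for 20-30% of maximal phosphorylation in three min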
- protocolDetails: phosphorylation enrichment, bacterial display (enrichment ratio); higher = better substrate or ligand; peptides without Tyr show the background
Is phosphorylation enrichment at least 0.5? Then 1. If not, 0.

Consider the worked cases shown below.
>>> grouplabel("LPHVIYCRLWC [SMAD2_Y128_R133C]")
1
>>> grouplabel("IVVVPYEPPEV [TP53_Y220_S215I]")
1
>>> grouplabel("KILGRYFETGS [PAX2_Y72_YF]")
0
>>> grouplabel("IGKAGYTDKMV [ENO1_Y236_V240M]")
0
>>> grouplabel("RGKLFYQEVPA [METTL11B_Y76_A72G]")
1
>>> grouplabel("HLRAGYIIPLQ [GAA_Y822]")
0
>>> grouplabel("NFDRIYIYHLR [MYOF_Y1137_V1136I]")
1
>>> grouplabel("EREYKYDAHNY [OAT_Y50_G51D]")
1
>>> grouplabel("LITSVYGCSRQ [TMPRSS6_Y290]")
1
>>> grouplabel("TNEYEYDELIV [TGM1_Y136_D132N]")
1

# next sequence below
Req: Exam item: decide whether the reported phosphorylation enrichment for ADDSYYTVRSA [ZAP70_Y493_A495V] is at least 0.5.
Resp: 0
